The origin of these recorded values is PubChem BioAssay (NCI).

ASSAY SUMMARY: NCI Yeast Anticancer Drug Screen. Data for the cln2 rad14 strain (AID 165);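 also: 0% = growth equal to vehicle treated cultures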
CONDITION PARAMETERS: S. cerevisiae cln2 rad14 strain, at 50.0 µM, stronger effect = higher value
This is part of a sample that, as a whole, favours compounds with a hit. Of some 79,000 tested, about 15% had one in any assay. Calls of active or inactive are those of the source. Rule as the data show it: active = growth inhibition above about 70%; inactive = the rest.
Measured growth inhibition of individual entries

Completed entries (count: 5):
- COMPOUND: "CN(Nc1ccnc(=O)[nH]1)c1ccccc1"
  RESULT: "-23.6% (inactive)"
- COMPOUND: "O=C(c1ccc2ccccc2c1)C(Cl)C(Cl)c1ccccc1 (stereo not given)"
  RESULT: "-15.8% (inactive)"
- COMPOUND: "CC(=O)Nc1nc2c(s1)CCc1ccccc1-2"
  RESULT: "5.6% (inactive)"
- COMPOUND: "c1ccc(C(N2CCNCC2)N2CCNCC2)cc1"
  RESULT: "-3.6% (inactive)"
- COMPOUND: "C1=C(CN2CCCCC2)Oc2ccccc2O1"
  RESULT: "46% (inactive)"

Problem: Using the record for COc1ccc(CC#N)c(OCc2ccccc2)c1 , report its growth inhibition.
Solution: 3.55% (inactive)

Problem: Using the record for C=C(C)[C@@H]1CC[C@]2(C)CC[C@]3(C)[C@H](CC[C@@H]4[C@@]5(C)CC[C@H](OC(=O)c6ccccc6)C(C)(C)[C@@H]5CC[C@]43C)[C@@H]12 , report its growth inhibition.
Solution: 2.9% (inactive)

Problem: Using the record for CN(C)c1ccc(N=Nc2ccc3nc[nH]c3c2)cc1 , report its growth inhibition.
Solution: -6.1% (inactive)
